Listed compounds paired with reported MIC90
System: P. acnes
Assay: MIC and MBC against 16 P. acnes isolates in the presence of 50% artificial sebum
Type: cell-based, Propionibacterium acnes
Conditions: Cutibacterium acnes; 16 P. acnes isolates; 50% artificial sebum
Answer format: numeric, µg/mL implied, no suffix.

Exercise: Which MIC90 value belongs to [H]/N=C(\N/C(=N/[H])NCCCCCCNC(=N)NC(=N)Nc1ccc(Cl)cc1)Nc1ccc(Cl)cc1 ?
Solution: 78

Exercise: Which MIC90 value belongs to CN(C)[C@@H]1C(O)=C(C(N)=O)C(=O)[C@@]2(O)C(O)=C3C(=O)c4c(O)cccc4[C@@](C)(O)[C@H]3C[C@@H]12 ?
Solution: 32

Exercise: Which MIC90 value belongs to O=C(O)c1ccccc1O ?
Solution: 1000

Exercise: Which MIC90 value belongs to O=C(OOC(=O)c1ccccc1)c1ccccc1 [Benzoyl peroxide, benzoyl peroxide] ?
Solution: 400
